- Tested on: calf thymus (CT) DNA
- experiment_summary: Thermal denaturation studies
- Type: binding
- condition_description: [PBD]:[DNA] molar ratio 1:5; CT-DNA 100 μM, ligand 20 μM; sodium phosphate buffer pH 7.00
assay_metric: ΔTm after incubation at 37° C. for 0 h (°C)

[[record]]
compound = "COc1cc2c(cc1OCCCCCN1CCN(CCCCCOc3cc4c(cc3OC)C(=O)N3CC(F)(F)C[C@H]3C=N4)CC1)N=C[C@@H]1CC(F)(F)CN1C2=O [IXf]"
measured_value = 13.0

[[record]]
compound = "COc1cc2c(cc1OCCCOc1cc3c(cc1OC)C(=O)N1CCC[C@H]1C=N3)N=C[C@@H]1CCCN1C2=O [DSB-120, reference compound]"
measured_value = 10.2

[[record]]
compound = "COc1cc2c(cc1OCCCCN1CCN(CCCCOc3cc4c(cc3OC)C(=O)N3CC(F)(F)C[C@H]3C=N4)CC1)N=C[C@@H]1CC(F)(F)CN1C2=O [IXe]"
measured_value = 14.0

[[record]]
compound = "COc1cc2c(cc1OCCCN1CCN(CCCOc3cc4c(cc3OC)C(=O)N3CC(F)C[C@H]3C=N4)CC1)N=C[C@@H]1CC(F)CN1C2=O (some centres unmarked) [Compound IXa]"
measured_value = 37.0

[[record]]
compound = "COc1cc2c(cc1OCCCN1CCN(CCCOc3cc4c(cc3OC)C(=O)N3CC(F)(F)C[C@H]3C=N4)CC1)N=C[C@@H]1CC(F)(F)CN1C2=O [IXd]"
measured_value = 11.0

